# measurementDescription: SPR, odorranalectin and its mutants binding L-fucose
# details: peptide immobilized, L-fucose as analyte, NA = no binding to L-fucose, read-out: binding affinity (KD)
metric: Kd (mM)
Number in mM, nothing else.

Using the record for YASPGGFRYPNGVLACT [Odorranalectin T17/G17] , report its Kd. 8.2

----------
# studyTarget: immobilized odorranalectin (Odorrana grahami)
metric: Kd (µM)
Number in µM, nothing else.

Request body: readout Kd, system immobilized odorranalectin (Odorrana grahami), query C[C@H](O)[C@@H](O)[C@@H](O)[C@H](O)C=O [L-fucose, reference compound] . Return the value. 54.7
